Assign GI50 to each entry below.
test system: TK-10; assay: NCI tumour cell line growth inhibition, 48 h
Calls of active or inactive are those of the source. Cut-off read from the data, not from the text of the source: active = GI50 up to about 1.1 µM and inactive = higher.

Example results:
compound: O=c1[nH][nH]c(=O)[nH]1
test-target: TK-10
GI50: > 100 µM (inactive)

compound: CC1(Cl)CCC2(CC(Br)=CC3OC32C)CC1Br (stereo not given)
test-target: TK-10
GI50: 46.6 µM (inactive)

compound: C[C@H](CCC(=O)O)[C@H]1CC[C@H]2[C@@H]3[C@@H](O)C[C@@H]4C[C@H](O)CC[C@]4(C)[C@H]3CC[C@]12C
test-target: TK-10
GI50: 99.3 µM (inactive)

compound: O=C(O)C/N=C(\C(=N\CC(=O)O)c1ccccc1)c1ccccc1
test-target: TK-10
GI50: > 100 µM (inactive)

The recorded GI50 for entry O=C1c2ccccc2C(=O)N1n1c(Cc2ccc(Cl)cc2)n[nH]c1=O equals > 100 µM (inactive)

====

test system: SNB-19; test: NCI tumour cell line growth inhibition, 48 h
Calls of active or inactive are those of the source. Rule as the data show it: active = GI50 up to about 1.1 µM and inactive = higher.
measured-metric: GI50

compound: O=C1C=Cc2c(Br)sc(Br)c21
GI50: > 100 µM (inactive)
//
compound: Cc1ccc(/C=C2\CCCC(C(NO)c3ccc(C)cc3)C2=NO)cc1 (stereo not given)
GI50: 83.6 µM (inactive)
//
compound: COC(=O)c1ccccc1C1=C([N+](=O)[O-])C(c2cccc(Br)c2)C(C#N)=C(N)O1 (stereo not given)
GI50: 91.6 µM (inactive)
//
compound: COc1cc(O)c2c(c1)C(O)C(O)CC1OC1C(=O)/C=C/CC(C)OC2=O (stereo not given)
GI50: 19.8 µM (inactive)

The recorded GI50 for entry C[C@@]12[C@H]3CC[C@@H]1[C@H](O)C(=O)N2CC3 equals > 100 µM (inactive)

====

Assign GI50 to each entry below.
system: ACHN; experiment: NCI tumour cell line growth inhibition, 48 h
The source made the active and inactive calls. No stated cut-off is given here; in the data, active = GI50 up to about 1.1 µM and inactive = higher.

Example results:
compound: O=C(O)C(O)c1ccc(F)cc1 (centres undefined)
obs-value: > 100 µM (inactive)

compound: CC(C)[C@@H]1CC[C@@H](C)C[C@H]1OC(=O)c1c2n(c3ccccc13)C[C@H]1OC(C)(C)O[C@@H]21
obs-value: 8.22 µM (inactive)

compound: NCC(NC(=O)OCc1ccccc1)C(=O)O (centres undefined)
obs-value: > 50 µM (inactive)

compound: CCOC1=C2N=C(C(CC)c3ccccc3F)N=C2C(=O)c2ccccc21 (centres undefined)
obs-value: > 100 µM (inactive)

compound: CC(=O)NC1C(OC(C)C(=O)NC(C)C(=O)NC(CCC(=O)NCCCCCNc2ccc([N+](=O)[O-])c3[nH]c4ccccc4c(=O)c23)C(N)=O)C(O)C(CO)OC1(C)OCc1ccccc1 (centres undefined)
obs-value: > 100 µM (inactive)

For the 4 compounds below, give their GI50 values.
1. CCOC(=O)c1c(N)sc2c1C(C(=O)OCC)CCC2 (centres undefined)
2. C[C@@H]1CC[C@@]2(C)C(C(=O)O)=CCCC2[C@@]1(C)CC(=O)c1ccoc1 (some centres undefined)
3. CCOCCOCCOCc1nc(C#N)c(N)o1
4. COC(=O)C1=C(\c2ccccc2)c2ccccc2C(=O)N(C2CCCCC2)/C=C\1

Reply |
["> 100 µM (inactive)", "> 25 µM (inactive)", "> 100 µM (inactive)", "15.6 µM (inactive)"]

====

system: BT-549; experiment: NCI tumour cell line growth inhibition, 48 h
Active and inactive are the calls of the source. No stated cut-off is given here; in the data, active = GI50 up to about 1.1 µM and inactive = higher.
In this exercise, the only acceptable responses are 1.0 (active), 0.0 (inactive)

Would you please look over these solved cases?
compound: C/C(=C\c1csc(C)n1)[C@@H]1C[C@@H]2O[C@]2(C)CCC[C@H](C)[C@H](O)[C@@H](C)C(=O)C(C)(C)[C@@H](O)CC(=O)O1
assigned-label: 1.0
//
compound: CCN(CC)c1ccc(C2NC(=O)c3ccccc3N2)cc1 (stereo not given)
assigned-label: 0.0

Ask | In this assay, the call recorded for O=C(/C=C1/Nc2ccc([N+](=O)[O-])cc2N/C1=C/C(=O)c1ccc(Cl)cc1)c1ccc(Cl)cc1 was what?
Reply | 0.0

Ask | In this assay, the call recorded for N=C(N)SCCc1ccccn1 was what?
Reply | 0.0

Ask | In this assay, the call recorded for C[C@H](CCC(=O)O)[C@H]1CC[C@H]2[C@@H]3[C@@H](O)C[C@@H]4C[C@H](O)CC[C@]4(C)[C@H]3CC[C@]12C was what?
Reply | 0.0

====

tested on: DMS-114; test: NCI tumour cell line growth inhibition, 48 h
Calls of active or inactive are those of the source. Cut-off read from the data, not from the text of the source: active = GI50 up to about 1.1 µM and inactive = higher. Where a SMILES comes first, the peptide text is derived from it.
In this exercise, the only acceptable responses are label 1 (active), label 0 (inactive)

molecule: CCCCCCCCCCCCCCCC(=O)Nc1ccn(C2OC(CO)C(O)C2O)c(=O)n1 (centres undefined)
test-target: DMS-114
assigned-label: label 0
//
molecule: CC1C(c2ccccc2)N(C)C(c2ccccc2)C(C)C1(O)c1ccccc1 (centres undefined)
test-target: DMS-114
assigned-label: label 0
//
molecule: COc1cc2c(c(OC)c1OC)-c1ccc(SC)c(=O)cc1[C@@H](NCc1ccc([N+](=O)[O-])cc1)CC2
test-target: DMS-114
assigned-label: label 1
//
molecule: COC(=O)C(Cl)=C1CC1
test-target: DMS-114
assigned-label: label 0
//
molecule: CCC(C)C1NC(=O)C2CCCN2C(=O)CNC(=O)C(C)NC(=O)C(Cc2ccccc2)NC(=O)C(C(C)C)NC1=O (centres undefined) (cyclo(GPIVFA); configuration not given here)
test-target: DMS-114
assigned-label: label 0
//
molecule: C/C=C/C#CC#C/C=C/C=C/C(O)CCO (centres undefined)
test-target: DMS-114
assigned-label: label 0
//
molecule: C=C(C)[C@@H]1CC[C@]2(C)CC[C@]3(C)[C@H](CC[C@@H]4[C@@]5(C)CC[C@H](O)C(C)(C)[C@@H]5CC[C@]43C)[C@@H]12 [LUPEOL]
test-target: DMS-114
assigned-label: label 0
//
molecule: NC(=O)N/N=C(/c1nc2ccc([N+](=O)[O-])cc2nc1O)C(O)c1ccco1 (centres undefined)
test-target: DMS-114
assigned-label: label 0

Ask | In this assay, the call recorded for O=C(c1ccc(Cl)cc1)N(C(=S)N1CCN(c2ccccn2)CC1)c1ccccc1 was what?
Reply | label 0

====

tested on: SW-620; test: NCI tumour cell line growth inhibition, 48 h
Active and inactive are the calls of the source. Cut-off read from the data, not from the text of the source: active = GI50 up to about 1.1 µM and inactive = higher.
measured-metric: GI50

compound: COc1ccc(/C=C2\N=C(c3ccccc3)N(NC3=NC(=O)CC(=O)N3)C2=O)cc1
GI50: > 100 µM (inactive)

compound: CCC(=O)CC(=O)CCC(=O)Nc1cc(C)ccc1C
GI50: > 100 µM (inactive)

compound: O=C1c2ccccc2-c2c1c1ccccc1c(=O)n2-c1cccnc1
GI50: 20.2 µM (inactive)

compound: CC(O)c1ccc[n+](Cc2ccccc2)c1 (stereo not given)
GI50: > 400 µM (inactive)

compound: COC(=O)C1=C(C(=O)OC)C(C(=O)OC)C(C(=O)OC)C(C(=O)OC)(C(=O)OC)C(C(=O)OC)=C1C(=O)OC (stereo not given)
GI50: 5.08 µM (inactive)

compound: Cc1cc2cc3c(C)cc(=O)oc3c(C)c2o1
GI50: > 100 µM (inactive)

compound: C=CC/N=C1\NC(=O)C(CC(=O)Nc2ccc(C)cc2)S1 (stereo not given)
GI50: > 100 µM (inactive)

compound: CCC1CC(C)C(O)/C=C/C=C/CC(C)OC(=O)CC(O)C(OC)C1OC1OC(C)CC(O)(C(C)=O)C1O (stereo not given)
GI50: > 100 µM (inactive)

compound: Cc1ccc(Cl)c2c(=O)cc(-c3ccccc3)[nH]c12
GI50: 67.5 µM (inactive)

The recorded GI50 for entry CCCC#CCOC(=O)c1cc([N+](=O)[O-])cc([N+](=O)[O-])c1 equals > 100 µM (inactive)

====

tested on: LOX IMVI; assay: NCI tumour cell line growth inhibition, 48 h
Calls of active or inactive are those of the source. No stated cut-off is given here; in the data, active = GI50 up to about 1.1 µM and inactive = higher.
measured-metric: GI50

For the 2 compounds below, give their GI50 values.
1. Cc1cccc2c1CC1(Cc3c(C)cccc3C1=O)C2=O
2. CCC1CC(C)C(O)/C=C/C=C/CC(C)OC(=O)CC(O)C(OC)C1OC1OC(C)CC(O)(C(C)=O)C1O (stereo not given)

Reply |
1: > 100 µM (inactive); 2: > 100 µM (inactive)

====

system: NCI-H226; experiment: NCI tumour cell line growth inhibition, 48 h
The source made the active and inactive calls. Cut-off read from the data, not from the text of the source: active = GI50 up to about 1.1 µM and inactive = higher.
measured-metric: GI50

Example results:
compound: O=C(CCN1CCN(c2ccccc2)CC1)N1CCc2c([nH]c3ccccc23)C1c1cccnc1 (stereo unspecified)
GI50: 25.9 µM (inactive)
//
compound: COc1ccc2nc3c([N+](=O)[O-])ccc4c3c(c2c1)N=CN4CCN(C)C
GI50: 4.34 µM (inactive)
//
compound: COc1cc(O)c2c(c1)C(O)C(O)CC1OC1C(=O)/C=C/CC(C)OC2=O (stereo unspecified)
GI50: 12.9 µM (inactive)
//
compound: CCCCCCCCCCCCCCCCOCC(CP(=O)([O-])OCC[n+]1ccccc1)OC (stereo unspecified)
GI50: 4.02 µM (inactive)
//
compound: O=C1Cc2cn[nH]c2-c2ccccc2N1
GI50: > 75.9 µM (inactive)

# context switch: different compound, same GI50
The recorded GI50 for entry COc1ccc2c(c1OC)C(Br)CCC(Br)(Br)C2=O (stereo unspecified) equals 14 µM (inactive)
